target.or.system: JAK3 (Homo sapiens, UniProt P52333)
Construct: purchased Carna Biosciences, Inc
Sequence (P52333 whole entry): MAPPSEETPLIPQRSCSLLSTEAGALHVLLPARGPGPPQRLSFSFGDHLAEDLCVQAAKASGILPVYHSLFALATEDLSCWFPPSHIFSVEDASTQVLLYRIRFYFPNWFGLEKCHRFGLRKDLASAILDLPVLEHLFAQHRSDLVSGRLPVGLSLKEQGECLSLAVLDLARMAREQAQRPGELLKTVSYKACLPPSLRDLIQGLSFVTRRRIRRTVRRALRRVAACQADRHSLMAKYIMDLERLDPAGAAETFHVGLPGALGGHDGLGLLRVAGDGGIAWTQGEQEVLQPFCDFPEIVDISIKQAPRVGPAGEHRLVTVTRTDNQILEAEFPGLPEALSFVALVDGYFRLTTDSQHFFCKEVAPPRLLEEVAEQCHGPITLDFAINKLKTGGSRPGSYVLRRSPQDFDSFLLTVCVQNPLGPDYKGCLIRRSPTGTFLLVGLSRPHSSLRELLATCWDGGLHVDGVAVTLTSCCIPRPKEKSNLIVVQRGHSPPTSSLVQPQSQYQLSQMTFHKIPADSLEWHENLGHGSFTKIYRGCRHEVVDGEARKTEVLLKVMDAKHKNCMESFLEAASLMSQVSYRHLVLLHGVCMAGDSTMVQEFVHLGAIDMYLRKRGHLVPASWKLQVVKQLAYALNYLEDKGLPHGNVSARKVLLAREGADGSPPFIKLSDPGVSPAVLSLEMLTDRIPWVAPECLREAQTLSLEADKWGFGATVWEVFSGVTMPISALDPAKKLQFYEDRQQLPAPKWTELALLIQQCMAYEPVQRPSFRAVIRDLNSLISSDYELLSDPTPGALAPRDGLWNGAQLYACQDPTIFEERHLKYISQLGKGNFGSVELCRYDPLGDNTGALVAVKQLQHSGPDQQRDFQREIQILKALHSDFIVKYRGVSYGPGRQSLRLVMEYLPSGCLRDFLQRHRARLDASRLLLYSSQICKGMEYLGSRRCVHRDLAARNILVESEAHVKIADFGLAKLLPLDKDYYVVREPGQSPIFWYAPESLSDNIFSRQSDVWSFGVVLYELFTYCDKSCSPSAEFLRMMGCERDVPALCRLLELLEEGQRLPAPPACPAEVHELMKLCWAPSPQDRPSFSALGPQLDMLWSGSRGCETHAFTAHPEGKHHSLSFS
assay.comment: JAK tyrosine kinase inhibitory activity in the presence of 1 mM ATP (ELISA), JAK3
Type: biochemical
Reported IC50 values for a set of compounds
Numbers only here, please. The scale is nM.

Given item CC(=O)NC1CCN(C(=O)c2cc(N[C@@H](C)C3CC3)nc(-c3cnn4ccsc34)n2)CC1 [Example 2] , the value recorded as its IC50 is 2700

The compound identified as C[C@@H](Nc1cc(C(=O)N2CCC(NC(=O)C3CC3)CC2)nc(-c2cnn3ccsc23)n1)C1CCCCC1 [Example 169] registered its IC50 at 2100
